assayComment: everolimus arterial tissue concentration in and next to the stented vessel
Format: in vivo, swine
measurementParameters: swine, arterial tissue, stented region, 3209 μg, swine; 8.0×28 mm stent, group 3, 3209 μg; 7 days; read-out: drug concentration in tissue of stented region
readoutType: concentration at 7 days
Reply with the number, then its unit.

Entry CO[C@H]1C[C@@H]2CC[C@@H](C)[C@@](O)(O2)C(=O)C(=O)N2CCCC[C@H]2C(=O)O[C@H]([C@H](C)C[C@@H]2CC[C@@H](OCCO)[C@H](OC)C2)CC(=O)[C@H](C)/C=C(\C)[C@@H](O)[C@@H](OC)C(=O)[C@H](C)C[C@H](C)/C=C/C=C/C=C/1C [everolimus, 40-O-(2-hydroxyethyl)-rapamycin] has what concentration at 7 days?
17200 ng/g
